From: ChEMBL document CHEMBL3769326

Documented pIC50 across a set of molecules
System: MCF7
Assay: cells
Settings: Homo sapiens, MCF7, 72 h
pIC50: −log10 of the molar value.
quantity_name: pIC50

molecule=COc1ccc(C(=O)N2CCN(c3cc4c(cc3F)c(=O)c(C(=O)O)cn4C3CC3)CC2)cn1 tested_target=MCF7 observed_result=4.37
molecule=O=C(O)c1cn(C2CC2)c2cc(N3CCN(C(=O)c4cccnc4Cl)CC3)c(F)cc2c1=O tested_target=MCF7 observed_result=3.82
molecule=O=C(O)c1cn(C2CC2)c2cc(N3CCN(C(=O)c4cc(Br)ccc4O)CC3)c(F)cc2c1=O tested_target=MCF7 observed_result=4.66
molecule=CCn1cc(C(=O)O)c(=O)c2cc(F)c(N3CCN(C(=O)c4cc(Br)ccc4O)CC3)cc21 tested_target=MCF7 observed_result=5.15
molecule=CCn1cc(C(=O)O)c(=O)c2cc(F)c(N3CCN(C(=O)c4cc(OC)ccc4O)CC3)cc21 tested_target=MCF7 observed_result=5.42
molecule=CCn1cc(C(=O)O)c(=O)c2cc(F)c(N3CCN(C(=O)c4cc(Cl)ccc4O)CC3)cc21 tested_target=MCF7 observed_result=5.92
molecule=CCn1cc(C(=O)O)c(=O)c2cc(F)c(N3CCN(C(=O)c4cccnc4Cl)CC3)cc21 tested_target=MCF7 observed_result=3.67
molecule=CCn1cc(C(=O)O)c(=O)c2cc(F)c(N3CCN(C(=O)c4ccc(OC)nc4)CC3)cc21 tested_target=MCF7 observed_result=3.45
molecule="CC[C@H](Nc1ncnc2[nH]cnc12)c1nc2cccc(F)c2c(=O)n1-c1ccccc1 [IDELALISIB]" tested_target=MCF7 observed_result=6.11
